- Tested on: UACC-62 melanoma
- Procedure details: NCI tumour cell line growth inhibition, 48 h
Property: TGI

• COc1ccc(N=NC2=C(O)CCC2=O)cc1 = 30.6 µM

Continue with the next compound.
Value of TGI reported for the compound CN(C)C(=O)N1N[C@H](c2ccccc2)[C@@H]1c1ccccc1 is > 100 µM

###

- Test system: OVCAR-4 ovarian
- Procedure details: NCI tumour cell line growth inhibition, 48 h
Property: GI50

• CCC[CH2][Sn]1([CH2]CCC)[O]C(=O)c2cccc([N+](=O)[O-])c2C(=O)[O]1 = 0.465 µM

Continue with the next compound.
Value of GI50 reported for the compound N#C/C(=C\c1ccc[nH]1)c1cc(-c2ccc(Cl)cc2)nn1-c1ccccc1 is 1.73 µM

###

TGI values, listed per item
- Test system: CCRF-CEM leukemia
- Procedure details: NCI tumour cell line growth inhibition, 48 h

Here are 5 compounds together with their reported answers.
• CCOc1ccc2c(c1)C(/C(C(Cl)=C(Cl)Cl)=[N+](/[O-])OC(=O)c1ccccc1)=N2 = > 100 µM
• NC(=Nc1ccccc1)N/N=C/c1c[nH]c2ccccc12 = 41 µM
• COc1cc(C(c2ccccc2)N2C(=O)CC[C@H]2C(=O)O)cc(OC)c1OC (stereo partly specified) = > 100 µM
• O=C1CCCC1CC(CN1CCOCC1)Sc1nnnn1-c1ccccc1 (stereo unspecified) = > 100 µM
• O=C(Nc1ccc(Br)cc1)C(=O)C(C(=O)c1ccc(Cl)c(Cl)c1)C1OC(=O)c2ccccc21 (stereo unspecified) = > 100 µM

Continue with the next compound.
Value of TGI reported for the compound COC(=O)C1=C(C)NC(=S)NC1c1ccc(N(CCCl)CCCl)cc1Cl (stereo unspecified) is > 32.7 µM

###

- Tested on: RXF 393 renal
- Procedure details: NCI tumour cell line growth inhibition, 48 h
TGI values, listed per item
Write the number in µM without appending the unit.

- Nc1ccc(C#Cc2ccccc2C#CCCCCO)cc1: 20.5
- COC(=O)[C@]1(C)CCC[C@@]2(C)C3=C(CC[C@H]12)C[C@@H](CC(OC(C)=O)OC(C)=O)[C@@H](C)C3: 16.1
- CCCCCCCCCCCCCCNCC(OC)OC: 28.9

Value of TGI reported for the compound O=C1C=CC2C3C(=O)N(c4ccccc4)C(=O)C3C1N2Cc1ccccc1 (stereo unspecified) is 6.53

Value of TGI reported for the compound COc1ccc(C(=O)/C=C/c2ccc(OCc3cccc(C(F)(F)F)c3)c(OC)c2)cc1OC is 562

Value of TGI reported for the compound COc1cc2c(cc1OCC(=O)Nc1ccc(Cl)cc1C(=O)c1ccccc1Cl)N=CC1CCCN1C2=O (stereo unspecified) is 15.6

###

- System: NCI-H522 lung
- Procedure details: NCI tumour cell line growth inhibition, 48 h
Assign class by TGI: not lower than 20 µM means satisfied; lower than 20 µM means not satisfied.

Reference set (6 entries):
• C[C@]12CC[C@H]3[C@@H](CC[C@]4(O)C[C@@H](O)CC[C@]34C=O)[C@@]1(O)CC[C@@H]2C1=CC(=O)OC1 = not satisfied
• CCC[N+](C)(C)CCCNC(=O)c1c(O)c2ccccc2[nH]c1=O = satisfied
• O=C(CC12C3C4C1C1C2C3C41CC(=O)NO)NO (centres undefined) = satisfied
• [N-]=[N+]=C(C(=O)CN1CCCC1=O)S(=O)(=O)c1ccccc1 = satisfied
• CC(C)N1CC2CC(CN(C(=O)c3ccc(Cl)cc3)C2)C1 = satisfied
• COc1ccccc1-c1csc(CCC(N)C(=O)O)n1 (centres undefined) = satisfied

Is reported TGI greater than or equal to 20 µM here: O=S(=O)(O)c1cc(S(=O)(=O)O)c2cc(N=Nc3ccc(N=Nc4ccc(/C=C/c5ccc(N=[N+]([O-])c6ccc(/C=C/c7ccc(N=Nc8ccc(N=Nc9ccc%10cc(S(=O)(=O)O)cc(S(=O)(=O)O)c%10c9)cc8)cc7S(=O)(=O)O)c(S(=O)(=O)O)c6)cc5S(=O)(=O)O)c(S(=O)(=O)O)c4)cc3)ccc2c1
satisfied

Is reported TGI greater than or equal to 20 µM here: COC(=O)N[C@@H]1C[C@H]2CC[C@]1(O[Si](C(C)C)(C(C)C)C(C)C)C(=O)C2
satisfied

Is reported TGI greater than or equal to 20 µM here: O=[N+]([O-])c1c(O)c2nonc2c2nn(-c3ccccc3)nc12
satisfied

Is reported TGI greater than or equal to 20 µM here: C=C1C(=O)O[C@@H]2/C=C(/C)[C@@H](OC(C)=O)C[C@@H](O)/C(C)=C\[C@@H](OC(=O)[C@]3(C)O[C@@H]3C)[C@@H]12
not satisfied

Is reported TGI greater than or equal to 20 µM here: COc1cc2c(cc1OCC(=O)Nc1ccc(Cl)cc1C(=O)c1ccccc1Cl)N=CC1CCCN1C2=O (centres undefined)
not satisfied

Is reported TGI greater than or equal to 20 µM here: N#C/C(=C\c1ccc[nH]1)c1cc(-c2ccc(Cl)cc2)nn1-c1ccccc1
satisfied

Is reported TGI greater than or equal to 20 µM here: Cn1nc(C(F)(F)F)cc1-c1cc(Cl)c(OCc2ccc(Cl)cc2)c(-c2ccc(Cl)c(C(F)(F)F)c2)c1O
not satisfied

Is reported TGI greater than or equal to 20 µM here: COC(=O)CC[C@@H](C)[C@H]1CC[C@H]2[C@@H]3CC[C@@H]4C[C@H](O)CC[C@]4(C)[C@H]3CC[C@]12C
satisfied

FYI, the data here is from PubChem BioAssay (NCI).
